# TGI per entry
# Tested on: A498 renal
# measurement-protocol: NCI tumour cell line growth inhibition, 48 h
Where a SMILES comes first, the peptide text is derived from it.

Solved entries (count: 4):
[[record]]
compound = "O=C1OC(Cl)C(N=P(c2ccccc2)(c2ccccc2)c2ccccc2)=C1Cl (configuration not stated)"
measured_parameter = "TGI"
assay_value = "> 100 µM"

[[record]]
compound = "Cc1cccc(-n2cnc3cc(C(=O)N4CCCCC4)ccc32)c1"
measured_parameter = "TGI"
assay_value = "> 100 µM"

[[record]]
compound = "COc1ccc(/C=C/C(=O)Nc2cc(/C=C\\c3cc(OC)c(OC)c(OC)c3)cc(OC)c2OC)cc1OC"
measured_parameter = "TGI"
assay_value = "> 100 µM"

[[record]]
compound = "CCC(C)C1NC(=O)C(CCCCN)NC(=O)C(CCCCN)NC(=O)C(CC(C)C)NC(=O)C(CCCCN)NC(=O)C(C(C)CC)NC(=O)C(C(C)C)NC(=O)C(C(C)CC)NC(=O)C(CCCCN)NC(=O)C(CCCCN)NC(=O)C(C)NC(=O)C(CCCCN)NC(=O)C(CC(C)C)NC1=O (configuration not stated) (cyclo(AKKIVIKLKKILK); configuration not given here)"
measured_parameter = "TGI"
assay_value = "3.84 µM"


Inquiry: Requested read-out TGI, target or system A498 renal, entry CCOC(=O)c1cc(C(=O)c2cc(OC)c(OC)c(OC)c2)n2nc(C)ccc12
Reply text: 0.931 µM

Inquiry: CC1(CO)OC(n2cnc3c(N)ncnc32)C(O)C1O (configuration not stated) , same question.
Reply text: > 100 µM

Inquiry: Follow-up item: CC[C@@]1(C[C@H]2C[C@@]3(C(=O)OC)c4[nH]c5ccccc5c4CCN3C2=S)COC2(CCCCC2)O1
Reply text: > 100 µM

###

Each item that follows carries a reported TGI.
# System: A549 NSCLC
# measurement-protocol: NCI tumour cell line growth inhibition, 48 h

The examples below pair each entry with its known result.
[[record]]
molecule = "CCN(CC)c1c(C(=O)/C=C/c2ccc(F)cc2)c(-c2ccccc2)nn(C)c1=O"
assay_value = "43.2 µM"

[[record]]
molecule = "Cc1ccc2c(/C=C/c3ccc(N(C)C)cc3)ccnc2c1C"
assay_value = "> 100 µM"

[[record]]
molecule = "COc1cc(-c2cc(-c3nc4ccc(F)cc4[nH]3)[nH]n2)cc(OC)c1OC"
assay_value = "8.81 µM"

[[record]]
molecule = "O=c1[nH]c(=O)n(C2CC(O)C(CO)O2)cc1/C=C/Br (configuration not stated)"
assay_value = "> 100 µM"

[[record]]
molecule = "O=S(=O)(Nc1nccs1)c1ccc(Nc2nc(-c3cccs3)nc3ccc(I)cc23)cc1"
assay_value = "71.2 µM"


Inquiry: Form field: reported TGI of COc1ccc(C(O)c2cc3c(N)c(C(=O)Nc4ccccc4)sc3nc2C)cc1 (configuration not stated)
Reply text: > 100 µM

Inquiry: Check C/C(=N\Nc1nc2ccccc2o1)c1ccc2ccccc2n1 too.
Reply text: > 100 µM

Inquiry: What do you get for NC1(P(=O)(O)O)CCCCC1 ?
Reply text: > 100 µM

Inquiry: // repeat for COC(=O)c1ccc(C2SC(C)C(=O)N2NC(=O)C(O)c2ccccc2)cc1 (configuration not stated) and report
Reply text: > 100 µM

Inquiry: // repeat for CN(C)CCNS(=O)(=O)N(C)C and report
Reply text: > 100 µM

Inquiry: Follow-up entry: COc1ccc(N(CN2C(=O)CCC2OC)C(C)=O)cc1 (configuration not stated)
Reply text: > 100 µM

Inquiry: Thanks! And COc1cc(Br)c(CC2C3=C(CCN2C(=O)C2CCC2)CC2(CC3)OCCO2)cc1O (configuration not stated) ?
Reply text: > 100 µM

Inquiry: And for C[C@]12CCC(=O)C(O)=C1CCC2=O ?
Reply text: > 100 µM

Inquiry: Next molecule up: CCOP(=O)(OCC)C(C)(C)OC(=O)NC(F)(F)F
Reply text: > 100 µM
